target: human Hsp90 NBD (Homo sapiens, UniProt P08238); details: 0.1 nM Cy3-GdA; Human NBD-Hsp90 (10 nM); Experiments 1-3, one value per experiment
Sequence (P08238 1-223): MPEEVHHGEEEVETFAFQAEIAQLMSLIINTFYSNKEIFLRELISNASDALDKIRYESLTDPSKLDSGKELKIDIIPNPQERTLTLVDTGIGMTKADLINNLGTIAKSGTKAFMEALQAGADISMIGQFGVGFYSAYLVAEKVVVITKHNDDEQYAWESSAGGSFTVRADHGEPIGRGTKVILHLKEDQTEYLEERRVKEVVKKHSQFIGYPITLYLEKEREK
assay_endpoint: EC50 (µM)
Give your result in µM as a bare value.

In one line, give reported EC50 of the entry COc1ccc(CON=C2C=CC=CC3OC3CC(C)OC(=O)c3c(O)cc(O)cc3C2)cc1 (mixture of isomers) .
1.25

---

biological target: Hsp90 in C. albicans (SC5314) lysate (Candida albicans, UniProt P46598); construct: endogenous in cells; host or cells: C. albicans SC5314 whole-cell lysate; assay: biochemical; format: binding; conditions: SC5314 lysate, 0.457 nM compound, raw
Sequence (P46598 whole entry): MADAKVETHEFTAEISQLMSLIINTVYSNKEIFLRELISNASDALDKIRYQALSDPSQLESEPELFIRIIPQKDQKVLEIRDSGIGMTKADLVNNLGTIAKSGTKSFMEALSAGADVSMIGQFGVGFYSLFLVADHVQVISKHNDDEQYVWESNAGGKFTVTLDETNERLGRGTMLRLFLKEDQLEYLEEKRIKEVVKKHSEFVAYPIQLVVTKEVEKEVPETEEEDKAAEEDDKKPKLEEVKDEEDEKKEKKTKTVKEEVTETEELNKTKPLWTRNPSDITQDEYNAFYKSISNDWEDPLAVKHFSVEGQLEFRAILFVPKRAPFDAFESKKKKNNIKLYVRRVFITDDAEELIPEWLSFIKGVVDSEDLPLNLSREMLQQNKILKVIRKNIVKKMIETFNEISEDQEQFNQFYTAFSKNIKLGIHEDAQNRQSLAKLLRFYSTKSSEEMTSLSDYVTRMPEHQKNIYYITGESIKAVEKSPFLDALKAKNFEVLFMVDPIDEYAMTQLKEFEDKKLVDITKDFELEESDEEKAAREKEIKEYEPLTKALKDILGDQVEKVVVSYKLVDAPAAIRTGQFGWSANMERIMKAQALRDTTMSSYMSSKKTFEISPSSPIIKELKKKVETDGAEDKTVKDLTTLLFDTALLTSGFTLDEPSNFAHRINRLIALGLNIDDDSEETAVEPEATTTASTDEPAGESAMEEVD
assay_endpoint: FP signal
// no unit, no text: just the number

Sample records with FP signal:
[
  {
    "molecule": "COC1=C2C[C@@H](C)C[C@H](OC)[C@H](O)[C@@H](C)/C=C(\\C)[C@H](OC(N)=O)[C@@H](OC)/C=C\\C=C(/C)C(=O)NC(=CC1=O)C2=O [geldanamycin, reference compound]",
    "FP signal": 205
  },
  {
    "molecule": "Cc1ccc(CON=C2C=CC=CC3OC3CC(C)OC(=O)c3c(O)cc(O)c(Cl)c3C2)cc1 (mixture of isomers)",
    "FP signal": 202
  },
  {
    "molecule": "COc1ccc(CON=C2C=CC=CC3OC3CC(C)OC(=O)c3c(O)cc(O)cc3C2)cc1 (centres unmarked)",
    "FP signal": 200
  },
  {
    "molecule": "CC1CC2OC2C=CC=CC(=NOCCN2CCCC2=O)Cc2c(Cl)c(O)cc(O)c2C(=O)O1 (centres unmarked) [KF58333, reference compound]",
    "FP signal": 203
  }
]

In one line, give reported FP signal of the entry COc1ccccc1CON=C1C=CC=CC2OC2CC(C)OC(=O)c2c(O)cc(O)c(Cl)c2C1 (mixture of isomers) .
193

---

Listing of recorded pEC50 by entry.
target: Hsp90 in C. albicans (SC5314) lysate (Candida albicans); construct: endogenous in cells; host or cells: C. albicans SC5314 whole-cell lysate; experiment: biochemical; type: binding; settings: EC50, SC5314 lysate, not normalized, oxime panel experiment 220817
Conceptually, pEC50 converts a concentration in mol/L into minus its log10.

[
  {
    "compound": "COc1ccc(CON=C2C=CC=CC3OC3CC(C)OC(=O)c3c(O)cc(O)cc3C2)cc1 (stereo not drawn)",
    "pEC50": 6.30
  }
]

Now look at this entry.
GET pEC50 | system: Hsp90 in C. albicans (SC5314) lysate (Candida albicans) | item: CC1CC2OC2C=CC=CC(=NOCCN2CCCC2=O)Cc2c(Cl)c(O)cc(O)c2C(=O)O1 (stereo not drawn) [KF58333, reference compound]
8.16

---

target: Hsp90 in C. albicans (SC5314) lysate (Candida albicans); construct: endogenous in cells; host or cells: C. albicans SC5314 whole-cell lysate; assay: biochemical; type: binding; settings: SC5314 lysate, 1.372 nM compound
Reported FP signal relative to 0 nM values for the following molecules.

[
  {
    "molecule": "CC1CC2OC2C=CC=CC(=NOCc2ccccc2)Cc2c(Cl)c(O)cc(O)c2C(=O)O1 (mixture of isomers)",
    "assayed_system": "Hsp90 in C. albicans (SC5314) lysate (Candida albicans)",
    "readout_value": 0.9282
  },
  {
    "molecule": "Cc1ccc(CON=C2C=CC=CC3OC3CC(C)OC(=O)c3c(O)cc(O)c(Cl)c3C2)cc1 (mixture of isomers)",
    "assayed_system": "Hsp90 in C. albicans (SC5314) lysate (Candida albicans)",
    "readout_value": 0.966
  },
  {
    "molecule": "CC1CC2OC2C=CC=CC(=NOCc2cccc(F)c2)Cc2c(Cl)c(O)cc(O)c2C(=O)O1 (mixture of isomers)",
    "assayed_system": "Hsp90 in C. albicans (SC5314) lysate (Candida albicans)",
    "readout_value": 0.9701
  }
]

With Hsp90 in C. albicans (SC5314) lysate (Candida albicans) as the test system, provide measured FP signal relative to 0 nM for this molecule: COc1ccc(CON=C2C=CC=CC3OC3CC(C)OC(=O)c3c(O)cc(O)c(Cl)c3C2)cc1 (mixture of isomers)
1.03

GET FP signal relative to 0 nM | system: Hsp90 in C. albicans (SC5314) lysate (Candida albicans) | item: COc1ccccc1CON=C1C=CC=CC2OC2CC(C)OC(=O)c2c(O)cc(O)c(Cl)c2C1 (mixture of isomers)
0.9657

---

// FP signal lookup, one value per entry
target: Hsp90 in C. albicans (SC5314) lysate (Candida albicans, UniProt P46598); construct: endogenous in cells; host or cells: C. albicans SC5314 whole-cell lysate; test: biochemical; assay type: binding; details: SC5314 lysate, 1.372 nM compound, raw
Reply: number alone, nothing else.

[
  {
    "molecule": "COc1ccc(CON=C2C=CC=CC3OC3CC(C)OC(=O)c3c(O)cc(O)cc3C2)cc1 (stereo not drawn)",
    "FP signal": 200
  },
  {
    "molecule": "CCON=C1/C=C/C=C\\[C@H]2O[C@H]2C[C@@H](C)OC(=O)c2c(O)cc(O)c(Cl)c2C1",
    "FP signal": 155
  }
]

Note FP signal for the molecule shown: COC1=C2C[C@@H](C)C[C@H](OC)[C@H](O)[C@@H](C)/C=C(\C)[C@H](OC(N)=O)[C@@H](OC)/C=C\C=C(/C)C(=O)NC(=CC1=O)C2=O [geldanamycin, reference compound]
198

---

Let's look at some compounds and their measured FP signal (raw).
target: Hsp90 in C. albicans (SC5314) lysate (Candida albicans, UniProt P46598); construct: endogenous in cells; host or cells: C. albicans SC5314 whole-cell lysate; experiment: biochemical; format: binding; conditions: SC5314 lysate, 333.333 nM
Give a plain numeric answer without units written out.

[
  {
    "compound": "CCON=C1/C=C/C=C\\[C@H]2O[C@H]2C[C@@H](C)OC(=O)c2c(O)cc(O)c(Cl)c2C1",
    "readout_value": 35
  },
  {
    "compound": "Cc1ccc(CON=C2C=CC=CC3OC3CC(C)OC(=O)c3c(O)cc(O)c(Cl)c3C2)cc1 (mixture of isomers)",
    "readout_value": 171
  },
  {
    "compound": "COc1ccccc1CON=C1C=CC=CC2OC2CC(C)OC(=O)c2c(O)cc(O)c(Cl)c2C1 (mixture of isomers)",
    "readout_value": 131
  },
  {
    "compound": "CCNC(=O)c1noc(-c2cc(C(C)C)c(O)cc2O)c1-c1ccc(CN2CCOCC2)cc1 [AUY922, reference compound]",
    "readout_value": 28
  },
  {
    "compound": "COc1ccc(CON=C2C=CC=CC3OC3CC(C)OC(=O)c3c(O)cc(O)c(Cl)c3C2)cc1 (mixture of isomers)",
    "readout_value": 171
  }
]

Now consider a different compound.
Return value of FP signal (raw) for input CC1CC2OC2C=CC=CC(=NOCc2cccc(F)c2)Cc2c(Cl)c(O)cc(O)c2C(=O)O1 (mixture of isomers) , no commentary.
111

---

biological target: Hsp90 in C. albicans (SC5314) lysate (Candida albicans, UniProt P46598); construct: endogenous in cells; host or cells: C. albicans SC5314 whole-cell lysate; assay: biochemical; format: binding; conditions: SC5314 lysate, 3000 nM compound, raw
assay_endpoint: FP signal

[
  {
    "compound": "COc1ccc(CON=C2C=CC=CC3OC3CC(C)OC(=O)c3c(O)cc(O)cc3C2)cc1 (stereo not shown)",
    "readout_value": 40
  },
  {
    "compound": "C[C@@H]1C[C@@H]2O[C@@H]2/C=C\\C=C\\C(=NOCc2ccccc2Cl)Cc2c(Cl)c(O)cc(O)c2C(=O)O1",
    "readout_value": 39
  },
  {
    "compound": "COC1=C2C[C@@H](C)C[C@H](OC)[C@H](O)[C@@H](C)/C=C(\\C)[C@H](OC(N)=O)[C@@H](OC)/C=C\\C=C(/C)C(=O)NC(=CC1=O)C2=O [geldanamycin, reference compound]",
    "readout_value": 30
  }
]

Let us examine a further case.
In one line, give reported FP signal of the entry CCON=C1/C=C/C=C\[C@H]2O[C@H]2C[C@@H](C)OC(=O)c2c(O)cc(O)c(Cl)c2C1 .
35

---

FP signal values for the compounds below.
biological target: Hsp90 in C. albicans (SC5314) lysate (Candida albicans, UniProt P46598); construct: endogenous in cells; host or cells: C. albicans SC5314 whole-cell lysate; test: biochemical; format: binding; settings: SC5314 lysate, 333.333 nM compound, raw
Simply state the number, no unit and no words.

[
  {
    "compound": "COc1ccc(CON=C2C=CC=CC3OC3CC(C)OC(=O)c3c(O)cc(O)cc3C2)cc1 (stereo not shown)",
    "FP signal": 146
  },
  {
    "compound": "CCON=C1/C=C/C=C\\[C@H]2O[C@H]2C[C@@H](C)OC(=O)c2c(O)cc(O)c(Cl)c2C1",
    "FP signal": 35
  },
  {
    "compound": "COc1ccccc1CON=C1C=CC=CC2OC2CC(C)OC(=O)c2c(O)cc(O)c(Cl)c2C1 (mixture of isomers)",
    "FP signal": 131
  }
]

Supply FP signal value. Item: Cc1ccc(CON=C2C=CC=CC3OC3CC(C)OC(=O)c3c(O)cc(O)c(Cl)c3C2)cc1 (mixture of isomers)
171
